Each recorded value in this set is attributed to patent US20260070917A1.

Molecular target: CDK2 (Homo sapiens)
Construct: host or cells: HEK293-CDK2-Hibit
Experiment: HiBit Assay Protocol for CDK2 (HIBIT protein quantification, degradation)
Format: cell-based
Details: HEK293-CDK2-Hibit cells, compound treatment for 6 hours
recorded-metric: CDK2 HIBIT Protein Quantification Maximum (%)

[
  {
    "compound": "CC1CCCC1N1C(=O)C2(CC2)c2cnc(NC3CCN(S(=O)(=O)N4CCC5(CCN(C(=O)CCCc6cccc7c6n(C)c(=O)n7C6CCC(=O)NC6=O)C5)C4)CC3)nc21 (centres unmarked) [Compound 32]",
    "target-desc": "CDK2 (Homo sapiens)",
    "measure-unit": "%",
    "readout-value": 59
  },
  {
    "compound": "CC1CCCC1N1C(=O)C2(CC2)c2cnc(NC3CCN(S(=O)(=O)N4CC5(CCCN(C(=O)CCCCCCCc6cccc7c6n(C)c(=O)n7C6CCC(=O)NC6=O)C5)C4)CC3)nc21 (centres unmarked) [Compound 3]",
    "target-desc": "CDK2 (Homo sapiens)",
    "measure-unit": "%",
    "readout-value": 34.6
  },
  {
    "compound": "Cn1nc(N2CCC(=O)NC2=O)c2ccc(C3CCN(Cc4cccc(S(=O)(=O)N5CC[C@H](Nc6ncc7c(n6)N([C@@H]6CCC[C@@H](O)C6)C(=O)C76CC6)[C@H](F)C5)c4)CC3)cc21 [Compound 156]",
    "target-desc": "CDK2 (Homo sapiens)",
    "measure-unit": "%",
    "readout-value": 81
  },
  {
    "compound": "CC(c1cccc(S(=O)(=O)N2CC[C@H](Nc3ncc4c(n3)N([C@@H]3CCC[C@@H](O)C3)C(=O)C43CC3)[C@H](F)C2)c1)N1CCN(c2ccc3c(N4CCC(=O)NC4=O)nn(C)c3c2)C[C@H]1C (some centres unmarked) [Compound 195]",
    "target-desc": "CDK2 (Homo sapiens)",
    "measure-unit": "%",
    "readout-value": 92
  },
  {
    "compound": "Cn1nc(N2CCC(=O)NC2=O)c2ccc(C3CCN(Cc4ccnc(S(=O)(=O)N5CCC(Nc6ncc7c(n6)N([C@@H]6CCC[C@@H](O)C6)C(=O)C76CC6)CC5)c4)CC3)cc21 [Compound 165]",
    "target-desc": "CDK2 (Homo sapiens)",
    "measure-unit": "%",
    "readout-value": 78
  }
]

---

Biological target: CCNE1 (Homo sapiens, UniProt P24864)
Construct: host or cells: HEK293-CCNE1-Hibit
Sequence (P24864 whole entry): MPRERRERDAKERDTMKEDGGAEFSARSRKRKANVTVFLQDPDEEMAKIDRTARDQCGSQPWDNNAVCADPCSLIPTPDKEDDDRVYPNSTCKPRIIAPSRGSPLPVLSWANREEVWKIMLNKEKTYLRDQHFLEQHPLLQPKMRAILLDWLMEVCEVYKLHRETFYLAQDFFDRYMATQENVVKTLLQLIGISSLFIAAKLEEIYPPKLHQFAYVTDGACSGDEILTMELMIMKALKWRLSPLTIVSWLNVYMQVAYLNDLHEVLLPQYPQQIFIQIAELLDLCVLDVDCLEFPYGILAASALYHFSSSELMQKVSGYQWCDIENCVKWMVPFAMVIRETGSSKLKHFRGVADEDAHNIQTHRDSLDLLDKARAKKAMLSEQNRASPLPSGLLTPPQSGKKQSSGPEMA
Assay: HiBit Assay Protocol for CCNE1 (HIBIT protein quantification, degradation)
Type: cell-based
Conditions: HEK293-CCNE1-Hibit cells, compound treatment for 6 hours
recorded-metric: CCNE1 HIBIT Protein Quantification Maximum (%)

[
  {
    "compound": "CC1CCCC1N1C(=O)C2(CC2)c2cnc(NC3CCN(S(=O)(=O)N4CCC5(CCN(C(=O)CCc6ccc7c(c6)n(C)c(=O)n7C6CCC(=O)NC6=O)C5)C4)CC3)nc21 (stereo not drawn)",
    "measure-unit": "%",
    "readout-value": 17
  },
  {
    "compound": "CC1CCCC1N1C(=O)C2(CC2)c2cnc(NC3CCN(S(=O)(=O)N4CC5(CN(CC6CCN(c7ccc8c(c7)n(C)c(=O)n8C7CCC(=O)NC7=O)CC6)C5)C4)CC3)nc21 (stereo not drawn)",
    "measure-unit": "%",
    "readout-value": 39
  },
  {
    "compound": "C[C@H](c1cccc(S(=O)(=O)N2CC[C@H](Nc3ncc4c(n3)N([C@@H]3CCC[C@@H](O)C3)C(=O)C43CC3)[C@H](F)C2)c1)N1CCN(c2ccc3c(N4CCC(=O)NC4=O)nn(C)c3c2)C[C@@H]1C",
    "measure-unit": "%",
    "readout-value": 48
  }
]

---

Target: CCNE1 (Homo sapiens)
Construct: host or cells: HEK293-CCNE1-Hibit
Experiment: HiBit Assay Protocol for CCNE1 (HIBIT protein quantification, degradation)
Format: cell-based
Conditions: HEK293-CCNE1-Hibit cells, compound treatment for 6 hours
Measured CCNE1 HIBIT Protein Quantification Maximum, listed per entry for reference.
recorded-metric: CCNE1 HIBIT Protein Quantification Maximum (%)

[
  {
    "compound": "CC1CCCC1N1C(=O)C2(CC2)c2cnc(NC3CCN(S(=O)(=O)N4CC5(CN(C(=O)CCCc6cccc7c6n(C)c(=O)n7C6CCC(=O)NC6=O)C5)C4)CC3)nc21 (stereo not shown) [Compound 29]",
    "readout-value": 47
  },
  {
    "compound": "CC1CCCC1N1C(=O)C2(CC2)c2cnc(NC3CCN(S(=O)(=O)N4CCCC45CCN(C(=O)CCCCCc4ccc6c(c4)n(C)c(=O)n6C4CCC(=O)NC4=O)C5)CC3)nc21 (stereo not shown) [Compound 74]",
    "readout-value": 29
  },
  {
    "compound": "CC1CCCC1N1C(=O)C2(CC2)c2cnc(NC3CCN(S(=O)(=O)N4CCC5(CCCN5C(=O)CCc5ccc6c(c5)n(C)c(=O)n6C5CCC(=O)NC5=O)C4)CC3)nc21 (stereo not shown) [Compound 56]",
    "readout-value": 19
  },
  {
    "compound": "CC1CCCC1N1C(=O)C2(CC2)c2cnc(NC3CCN(S(=O)(=O)N4CC5CN(C(=O)CCCc6ccc7c(c6)n(C)c(=O)n7C6CCC(=O)NC6=O)CC54)CC3)nc21 (stereo not shown) [Compound 70]",
    "readout-value": 6
  },
  {
    "compound": "CC1CCCC1N1C(=O)C2(CC2)c2cnc(NC3CCN(S(=O)(=O)N4CC5(CCCCN5C(=O)CCCCc5cccc6c5n(C)c(=O)n6C5CCC(=O)NC5=O)C4)CC3)nc21 (stereo not shown) [Compound 95]",
    "readout-value": 15
  },
  {
    "compound": "Cc1ccc(S(=O)(=O)N2CCC(Nc3ncc4c(n3)N([C@@H]3CCC[C@@H](O)C3)C(=O)C43CC3)CC2)cc1CN1CCC(c2ccc3c(N4CCC(=O)NC4=O)nn(C)c3c2)CC1 [Compound 168]",
    "readout-value": 40
  },
  {
    "compound": "CC1CCCC1N1C(=O)C2(CC2)c2cnc(NC3CCN(S(=O)(=O)N4CC5(CCCCN5C(=O)CCCCCc5cccc6c5n(C)c(=O)n6C5CCC(=O)NC5=O)C4)CC3)nc21 (stereo not shown) [Compound 37]",
    "readout-value": 30
  },
  {
    "compound": "C[C@H](c1cccc(S(=O)(=O)N2CCC(Nc3ncc4c(n3)N([C@@H]3CCC[C@@H](O)C3)C(=O)C43CC3)CC2)c1)N1CCC(c2ccc3c(N4CCC(=O)NC4=O)nn(C)c3c2)CC1 [Compound 151]",
    "readout-value": 69
  },
  {
    "compound": "CC(C)[C@H]1CN([C@@H](C)c2cccc(S(=O)(=O)N3CC[C@H](Nc4ncc5c(n4)N([C@@H]4CCC[C@@H](O)C4)C(=O)C54CC4)[C@H](F)C3)c2)CCN1c1ccc2c(N3CCC(=O)NC3=O)nn(C)c2c1 (single isomer, unassigned) [Compound 202]",
    "readout-value": 37
  },
  {
    "compound": "CC1CCCC1N1C(=O)C2(CC2)c2cnc(NC3CCN(S(=O)(=O)C4CCN(CC5CCN(c6ccc7c(c6)n(C)c(=O)n7C6CCC(=O)NC6=O)CC5)C4)CC3)nc21 (stereo not shown) [Compound 140]",
    "readout-value": 20
  }
]

---

Target: CDK9 (Homo sapiens, UniProt P50750)
Construct: host or cells: HEK293-CDK9-Hibit
Sequence (P50750 whole entry): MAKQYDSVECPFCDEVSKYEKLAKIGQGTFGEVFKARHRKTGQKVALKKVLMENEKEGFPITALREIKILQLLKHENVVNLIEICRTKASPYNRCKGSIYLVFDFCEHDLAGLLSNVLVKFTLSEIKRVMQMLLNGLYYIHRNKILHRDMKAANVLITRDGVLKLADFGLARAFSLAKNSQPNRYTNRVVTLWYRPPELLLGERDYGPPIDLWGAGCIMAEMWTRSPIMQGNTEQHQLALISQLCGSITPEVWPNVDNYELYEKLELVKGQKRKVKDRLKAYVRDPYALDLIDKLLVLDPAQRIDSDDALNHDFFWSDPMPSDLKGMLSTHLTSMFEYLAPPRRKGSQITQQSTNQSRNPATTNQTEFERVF
Experiment: HiBit Assay Protocol for CDK9 (HIBIT protein quantification, degradation)
Assay type: cell-based
Conditions: 6 h, HEK293-CDK9-Hibit cells, compound treatment for 6 hours; read-out: CDK9 HIBIT Protein Quantification Maximum
Measured Dmax, listed per entry for reference.
recorded-metric: Dmax (%)

[
  {
    "molecule": "CC1CCCC1N1C(=O)C2(CC2)c2cnc(NC3CCN(S(=O)(=O)N4CC(N(C)C(=O)CCCCc5cccc6c5n(C)c(=O)n6C5CCC(=O)NC5=O)C4)CC3)nc21 (stereo not drawn)",
    "readout-value": 37
  },
  {
    "molecule": "CC(C)[C@@H]1CN([C@@H](C)c2cccc(S(=O)(=O)N3CC[C@H](Nc4ncc5c(n4)N([C@@H]4CCC[C@@H](O)C4)C(=O)C54CC4)[C@H](F)C3)c2)CCN1c1ccc2c(N3CCC(=O)NC3=O)nn(C)c2c1",
    "readout-value": 14
  },
  {
    "molecule": "C[C@@H](c1cccc(S(=O)(=O)N2CC[C@H](Nc3ncc4c(n3)N([C@@H]3CCC[C@@H](O)C3)C(=O)C43CC3)[C@H](F)C2)c1)N1CCN(c2ccc3c(N4CCC(=O)NC4=O)nn(C)c3c2)[C@@H](C)C1",
    "readout-value": 13
  }
]
